Source of measurements: paper PMC1636342

target: Bs-CspB (Bacillus subtilis, UniProt P32081 1-67); experiment: tryptophan fluorescence quenching
PROPERTY NAME: pKd
Answers are plain numbers, as −log10 of the molar value.

Ask | Supply pKd value. Item: TTTTTTT (ssDNA) [dT7]
Reply | 8.74
